Tested on: KB
assay: Cytotoxicity against human KB cells by resazurin microplate assay
Assay type: functional, cell-based
reported.endpoint: IC50 (µg/mL)

> print(dat)
                                   compound  observed.result
1          O=C(O)c1ccc2c(c1)C=C/C(=C\Cl)CO2             0.78
2  CO/C=C(/C(=O)OC)[C@H](C)[C@H](/C=C/c1ccccc1)OC             5.48
3  CO/C=C(/C(=O)OC)[C@H](C)[C@H](/C=C/c1ccc(Cl)c(OC)c1)OC [(-)-OUDEMANSIN B]             0.73
4          NC(=O)c1ccc2c(c1)C=C/C(=C\Cl)CO2             12.1
5  CO\C=C(C(=O)OC)/C(C)=C(\C=C\c1ccc2c(c1)OC(C)(C)[C@@H](OCC=C(C)C)CO2)OC             14.3
6   CO\C=C(C(=O)OC)/C(C)=C(\C=C\c1ccccc1)OC             1.39
7  CO\C=C(C(=O)OC)/C(C)=C(\C=C\c1ccc(Cl)c(OC)c1)OC             5.45
8  COc1cccc2c1C(=O)c1c(O)c3c(c(O)c1C2=O)C[C@@](O)(C(=O)CO)C[C@@H]3O[C@H]1C[C@H](N)[C@H](O)[C@H](C)O1             0.25
9          Cc1c2ccncc2c(C)c2c1[nH]c1ccccc12             0.45

* * *

Tested on: Vero
assay: Cytotoxicity against african green monkey Vero cells by green fluorescent protein assay
Assay type: cell-based
condition.parameters: Chlorocebus sabaeus
Binarize IC50 at 10 µg/mL; below is 1.0, at or above is 0.0.

> print(dat)
                                   molecule  class.assignment
1  CO/C=C(/C(=O)OC)[C@H](C)[C@H](/C=C/c1ccc(Cl)c(OC)c1)OC [(-)-OUDEMANSIN B]               0.0
2  CO/C=C(/C(=O)OC)[C@H](C)[C@H](/C=C/c1ccccc1)OC               0.0
3  CO\C=C(C(=O)OC)/C(C)=C(\C=C\c1ccccc1)OC [9-METHOXYSTROBILURIN A]               0.0
4  CO\C=C(C(=O)OC)/C(C)=C(\C=C\c1ccc2c(c1)OC(C)(C)[C@@H](OCC=C(C)C)CO2)OC               0.0
5  CO\C=C(C(=O)OC)/C(C)=C(\C=C\c1ccc(Cl)c(OC)c1)OC [9-METHOXYSTROBILURIN B]               1.0
6          NC(=O)c1ccc2c(c1)C=C/C(=C\Cl)CO2               0.0
7  Cc1c2ccncc2c(C)c2c1[nH]c1ccccc12 [ELLIPTECINE]               1.0
8          O=C(O)c1ccc2c(c1)C=C/C(=C\Cl)CO2               0.0
